Listed next: entries and their corresponding Haemolysis HC10.
Tested on: human red blood cells
assay.remarks: Haemolysis assay
Assay type: cell-based
stated.conditions: concentration inducing 10 % haemolysis
experimental.readout: Haemolysis HC10

>  <molecule>
C1=C\CC/C=C\CC/1.[Cl-].[Cl-].[Pt+2] [Pt1, Pt(COD)Cl2]

>  <result>
>100 µM

$$$$
>  <molecule>
C1=CCCC=CCC1.COc1cc[c]([Pt][CH3])cc1 [Pt5]

>  <result>
88.43 µM

$$$$
>  <molecule>
C1=CCCC=CCC1.[CH3][Pt][C](F)(C(F)(F)F)C(F)(F)F [Pt6]

>  <result>
>100 µM

$$$$
>  <molecule>
CCC1=CCCC=CCC1.[CH3][Pt][Cl] [Pt7]

>  <result>
10.27 µM

$$$$
>  <molecule>
C1=CCC/C=C\CC1.[I][Pt][I] [Pt2, Pt(COD)I2]

>  <result>
>100 µM

$$$$
>  <molecule>
C1=CCCC=CCC1.[CH3][Pt][Cl] [Pt4]

>  <result>
10.23 µM

$$$$
>  <molecule>
C1=CCCC=CCC1.[CH3][Pt][CH3] [Pt3]

>  <result>
>100 µM

$$$$
>  <molecule>
C1=C\CC/C=C\CC/1.[Cl][Pd][Cl] [Pd1]

>  <result>
7.76 µM

$$$$
>  <molecule>
CCC1=CCCC=CCC1.[CH3][Pt][C](F)(F)C(F)(F)C(F)(F)C(F)(F)C(F)(F)C(F)(F)C(F)(F)C(F)(F)F [Pt9]

>  <result>
>100 µM

$$$$
>  <molecule>
CC(C)C([O][Pt][Cl])/C1=C/CC/C=C\CC1 (stereo not shown) [Pt8]

>  <result>
>100 µM

$$$$
